# Tested on: MCF7
# protocol: Cytotoxicity against Homo sapiens (human) MCF-7 cells after 48 hr by SRB assay relative to control
# Format: functional, cell-based
# condition.set: MCF7, 48 h
pIC50: −log10 of the molar value.

- compound: "CC1(C)CC(=O)C2=C(C1)N(c1ccc(S(N)(=O)=O)cc1)C(N)=C(C(N)=O)C2c1ccc(F)cc1 (stereo not drawn)"
  tested.target: "MCF7"
  op: "="
  pIC50: 4.12
- compound: "CC1(C)CC(=O)C2=C(C1)N(c1ccc(S(N)(=O)=O)cc1)c1ncnc(N=C=S)c1C2c1ccc(F)cc1 (stereo not drawn)"
  tested.target: "MCF7"
  op: "="
  pIC50: 4.07
- compound: "CCNC(=S)NC1=C(C#N)C(c2ccc(F)cc2)C2=C(CC(C)(C)CC2=O)N1c1ccc(S(N)(=O)=O)cc1 (stereo not drawn)"
  tested.target: "MCF7"
  op: "<"
  pIC50: 4.00
- compound: "CC1(C)CC(=O)C2=C(C1)N(c1ccc(S(N)(=O)=O)cc1)c1ncnc(Cl)c1C2c1ccc(F)cc1 (stereo not drawn)"
  tested.target: "MCF7"
  op: "="
  pIC50: 4.07
- compound: "CC1(C)CC(=O)C2=C(C1)N(c1ccc(S(N)(=O)=O)cc1)c1nc(CC#N)[nH]c(=O)c1C2c1ccc(F)cc1 (stereo not drawn)"
  tested.target: "MCF7"
  op: "<"
  pIC50: 4.00
- compound: "Cc1nc2c(c(=O)[nH]1)C(c1ccc(F)cc1)C1=C(CC(C)(C)CC1=O)N2c1ccc(S(N)(=O)=O)cc1 (stereo not drawn)"
  tested.target: "MCF7"
  op: "="
  pIC50: 4.16
- compound: "CC1(C)CC(=O)C2=C(C1)N(c1ccc(S(N)(=O)=O)cc1)c1nc(CCl)[nH]c(=O)c1C2c1ccc(F)cc1 (stereo not drawn)"
  tested.target: "MCF7"
  op: "<"
  pIC50: 4.00
- compound: "CC(=O)NC1=C(C#N)C(c2ccc(F)cc2)C2=C(CC(C)(C)CC2=O)N1c1ccc(S(N)(=O)=O)cc1 (stereo not drawn)"
  tested.target: "MCF7"
  op: "="
  pIC50: 4.07
